# measured_target: human glucagon receptor (human) (UniProt P47871)
# Sequence (P47871 26-477): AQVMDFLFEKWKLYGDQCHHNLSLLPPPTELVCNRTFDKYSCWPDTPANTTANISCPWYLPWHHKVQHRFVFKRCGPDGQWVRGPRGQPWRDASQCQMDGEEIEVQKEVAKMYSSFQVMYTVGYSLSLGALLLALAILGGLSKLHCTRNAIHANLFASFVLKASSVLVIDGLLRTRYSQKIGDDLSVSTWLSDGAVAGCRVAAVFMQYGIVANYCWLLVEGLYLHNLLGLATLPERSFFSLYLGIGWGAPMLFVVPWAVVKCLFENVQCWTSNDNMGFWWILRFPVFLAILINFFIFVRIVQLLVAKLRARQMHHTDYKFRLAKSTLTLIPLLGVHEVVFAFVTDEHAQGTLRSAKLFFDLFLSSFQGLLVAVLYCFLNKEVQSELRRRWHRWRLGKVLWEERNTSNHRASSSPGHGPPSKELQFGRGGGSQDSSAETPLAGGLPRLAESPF
# measurement_description: cell-based or functional assay
test_readout: cAMP Rel EC50 (in the presence of 1% HSA) (µM)

[
  {
    "binder": "YXQGTFTSDFSXXLDKKAQXAFIEYLLEGGPSSGAPPPGGX (C-terminal amide; lysine acylated with AEEA-γ-Glu-C18 diacid; synthetic construct; SITE 2: note = 2-Aminoisobutyric Acid; SITE 12: note = L-ornithine; SITE 13: note = alpha-methyl-leucine; SITE 17: note = Lysine is chemically modified through conjugation of the epsilon-amino group of the Lysine side chain with (2-[2-(2-Amino-ethoxy)-ethoxy]-acetyl)-(gamma-Glu)) [Example 261]",
    "unit_abbreviation": "µM",
    "numeric_value": 0.52
  },
  {
    "binder": "YXQGTXTSDXSIXLDKKAQXXFIEYLQEGGPSSGEPPPSGSEE (non-natural residues, lipidated Lys, C-terminal amide; synthetic construct; SITE 2: note = 2-Aminoisobutyric Acid; SITE 6: note = alpha-methyl-2-fluoro-L-phenylalanine; SITE 10: note = 3-(4-Pyridyl)-L-alanine; SITE 13: note = alpha-methyl-leucine; SITE 17: note = Lysine is chemically modified through conjugation of the epsilon-amino group of the Lysine) [Example 639]",
    "unit_abbreviation": "µM",
    "numeric_value": 0.75
  },
  {
    "binder": "YXQGTFTSDFSKXLDKKAQXAFIEYLLAGGPSSGEPPPSGE (synthetic construct; SITE 2: note = 2-Aminoisobutyric Acid; SITE 13: note = alpha-methyl-leucine; SITE 17: note = Lysine is chemically modified through conjugation of the epsilon-amino group of the Lysine side chain with (2-[2-(2-Amino-ethoxy)-ethoxy]-acetyl)-(gamma-Glu)-CO-(CH2) 16-CO2H; SITE 20: n) [Example 23]",
    "unit_abbreviation": "µM",
    "numeric_value": 0.573
  },
  {
    "binder": "YXQGTFTSDFSXXLDKKAQXAFIEWLLEGGHSSGAPPPGGE (Aib, Orn, αMeL; lipidated Lys; C-terminal amide; synthetic construct; SITE 2: note = 2-Aminoisobutyric Acid; SITE 12: note = L-ornithine; SITE 13: note = alpha-methyl-leucine; SITE 17: note = Lysine is chemically modified through conjugation of the epsilon-amino group of the Lysine side chain with (2-[2-(2-Amino-ethoxy)-ethoxy]-acetyl)2-(gamma-Glu)) [Example 271]",
    "unit_abbreviation": "µM",
    "numeric_value": 2.68
  },
  {
    "binder": "YXQGTXTSDXXIXLDXKAQXXFIEXLTEGGPSSGEPPPEGTEEE (acylated Lys (γGlu)2-C18 diacid; non-natural residues; C-terminal amide; synthetic construct; SITE 2: note = 2-Aminoisobutyric Acid; SITE 6: note = alpha-methyl-2-fluoro-L-phenylalanine; SITE 10: note = 3-(4-Pyridyl)-L-alanine; SITE 11: note = alpha-methyl-L-serine; SITE 13: note = alpha-methyl-leucine; SITE 16: note = L-ornithine; SITE 17: note = Lysine is chemically mo) [Example 598]",
    "unit_abbreviation": "µM",
    "numeric_value": 0.457
  },
  {
    "binder": "YXQGTFTSDXXQXLDXKAQXQFIEXLIAXGPSSGEPPPSGGGE (non-natural residues; lipidated Lys γGlu-C18 diacid; C-term amide; synthetic construct; SITE 2: note = 2-Aminoisobutyric Acid; SITE 10: note = 3-(4-Pyridyl)-L-alanine; SITE 11: note = alpha-methyl-L-serine; SITE 13: note = alpha-methyl-leucine; SITE 16: note = L-ornithine; SITE 17: note = Lysine is chemically modified through conjugation of the epsilon-amino group) [Example 1182]",
    "unit_abbreviation": "µM",
    "numeric_value": 0.172
  }
]
